These data points were gathered from BigSolDB 2.1.

Details: in n-butanol, 318.15 K

[
  {
    "molecular string": "Nc1ccnc(=O)[nH]1",
    "solubility (mole fraction)": 0.000344
  }
]

* * *

Conditions: in n-propanol, 328.15 K
observable: solubility (mole fraction)

[
  {
    "molecular string": "Nc1ccnc(=O)[nH]1",
    "observed measurement": 0.000588
  }
]

* * *

Conditions: in isopentanol, 323.15 K
observable: solubility (mole fraction)

[
  {
    "molecular string": "Nc1ccnc(=O)[nH]1",
    "observable": "solubility (mole fraction)",
    "observed measurement": 0.000415
  }
]

* * *

Details: in ethanol, 308.15 K
observable: solubility (mole fraction)

[
  {
    "molecular string": "Nc1ccnc(=O)[nH]1",
    "observed measurement": 0.000451
  }
]

* * *

Settings: in n-pentanol, 303.15 K

[
  {
    "molecular string": "Nc1ccnc(=O)[nH]1",
    "solubility (mole fraction)": 0.000228
  }
]

* * *

Conditions: in n-hexanol, 323.15 K
observable: solubility (mole fraction)

[
  {
    "molecular string": "Nc1ccnc(=O)[nH]1",
    "observable": "solubility (mole fraction)",
    "observed measurement": 0.000337
  }
]

* * *

Settings: in n-hexanol, 288.15 K
observable: solubility (mole fraction)

[
  {
    "molecular string": "Nc1ccnc(=O)[nH]1",
    "observed measurement": 0.000139
  }
]

* * *

Conditions: in n-pentanol, 298.15 K

[
  {
    "molecular string": "Nc1ccnc(=O)[nH]1",
    "solubility (mole fraction)": 0.000197
  }
]

* * *

Conditions: in n-hexanol, 313.15 K
observable: solubility (mole fraction)

[
  {
    "molecular string": "Nc1ccnc(=O)[nH]1",
    "observable": "solubility (mole fraction)",
    "observed measurement": 0.000251
  }
]

* * *

Settings: in isopentanol, 293.15 K
observable: solubility (mole fraction)

[
  {
    "molecular string": "Nc1ccnc(=O)[nH]1",
    "observed measurement": 0.000221
  }
]

* * *

Settings: in ethanol, 298.15 K
observable: solubility (mole fraction)

[
  {
    "molecular string": "Nc1ccnc(=O)[nH]1",
    "observed measurement": 0.000372
  }
]

* * *

Details: in n-hexanol, 318.15 K

[
  {
    "molecular string": "Nc1ccnc(=O)[nH]1",
    "solubility (mole fraction)": 0.00029
  }
]

* * *

Conditions: in isopropanol, 308.15 K

[
  {
    "molecular string": "Nc1ccnc(=O)[nH]1",
    "solubility (mole fraction)": 0.00024
  }
]

* * *

Details: in DMSO, 318.15 K
observable: solubility (mole fraction)

[
  {
    "molecular string": "Nc1ccnc(=O)[nH]1",
    "observable": "solubility (mole fraction)",
    "observed measurement": 0.0136
  }
]

* * *

Conditions: in n-octanol, 328.15 K

[
  {
    "molecular string": "Nc1ccnc(=O)[nH]1",
    "solubility (mole fraction)": 0.000304
  }
]

* * *

Settings: in sec-butanol, 303.15 K

[
  {
    "molecular string": "Nc1ccnc(=O)[nH]1",
    "solubility (mole fraction)": 0.000165
  }
]

* * *

Conditions: in DMSO, 328.15 K

[
  {
    "molecular string": "Nc1ccnc(=O)[nH]1",
    "solubility (mole fraction)": 0.0155
  }
]
